Here the recorded activation is given for each entry.
- tested.target: Muscarinic acetylcholine receptor M1 (Homo sapiens) (UniProt P11229)
- Sequence (P11229 whole entry, looked up): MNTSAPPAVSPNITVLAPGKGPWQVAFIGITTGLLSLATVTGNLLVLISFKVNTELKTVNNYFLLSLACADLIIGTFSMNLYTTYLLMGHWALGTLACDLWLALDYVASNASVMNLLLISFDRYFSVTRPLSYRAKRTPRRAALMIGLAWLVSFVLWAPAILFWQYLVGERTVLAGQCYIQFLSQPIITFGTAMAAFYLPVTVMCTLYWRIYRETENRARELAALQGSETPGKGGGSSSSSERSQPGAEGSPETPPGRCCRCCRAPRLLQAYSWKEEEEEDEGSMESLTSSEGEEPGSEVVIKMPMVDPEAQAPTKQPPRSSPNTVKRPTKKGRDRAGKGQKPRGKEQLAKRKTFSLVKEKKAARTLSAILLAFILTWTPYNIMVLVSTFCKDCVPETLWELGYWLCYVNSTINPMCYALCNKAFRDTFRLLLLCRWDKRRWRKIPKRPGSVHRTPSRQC
- test.name: human M1 muscarinic receptor agonists, primary screen, Fluo-8 calcium fluorescence, CHO-K1 cells, HTS (AID 588814);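 also: peak over basal fluorescence ratio within a 140 s kinetic read after compound addition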
- condition.details: CHO-K1 hM1, Fluo-8 calcium fluorescence, agonist mode; at 3 µM; active compounds read high; 0% DMSO, 100% acetylcholine EC100
Screen size: about 360,000 compounds; about 1,200 (0.33%) were called active. This excerpt belongs to a sample that is enriched for actives.
The answer is to be given in %; state only the numeric part.

Solved cases below.
> print(dat)
                                   compound   parameter  endpoint.unit  quantitative.readout
1    COc1ccc(C(=O)NNC(=S)NC(=O)c2ccccc2)cc1  activation              %                  34.3
2      O=C(CCc1ccccc1)NNC(=O)COc1ccc(Cl)cc1  activation              %                  1.21
3    O=C(NNC(=S)NCc1ccccc1)c1ccc(OC(F)F)cc1  activation              %                 -4.38
4  O=C(NCCc1c[nH]c2ccccc12)C1CCN(Cc2ccc(Br)cc2)CC1  activation              %                  -4.6

// recorded activation for "CCOC1=C2[C@@H](CN(S(=O)(=O)c3ccc(C)cc3)[C@H]2c2ccccc2F)[C@H]2C(=O)N(Cc3ccccc3)C(=O)[C@H]2C1" : -5.09

// recorded activation for "CN1c2ccc(C=O)c3c(C=O)ccc(c23)N(C)C1(C)C" : -7.9

// recorded activation for "CCS(=O)(=O)n1nc(-c2ccccc2)nc1SCc1ccccc1" : -2.07

// recorded activation for "CC(C)c1ccc(NC(=O)Cn2ncc3ccccc32)cc1" : -2.42

// recorded activation for "COCCNc1ncnc2c1nc1n2CCCC1" : -3.29

// recorded activation for CCN(CC)C(=O)C1=C(C)N(Cc2ccc(OC)cc2)C(=O)C(CC(=O)NCCCCc2ccccc2)C1 (configuration not stated) : 23.1

// recorded activation for Cn1nccc1NC(=O)CC(CC(=O)O)c1ccccc1 (configuration not stated) : 0.28

// recorded activation for "CCCCNC(=O)CCn1c(=O)c2ccccc2n(Cc2cc(C)ccc2C)c1=O" : -4.41

// recorded activation for "CC(=O)NC(=S)NNC(=O)c1ccc(Br)cc1" : -8.87

// recorded activation for CCOC(=O)C1CCCN(Cc2nc(N)nc(Nc3ccc(C)cc3)n2)C1 (configuration not stated) : 28.3

// recorded activation for "Cc1ccc(S(=O)(=O)N(Cc2ccc(Cl)cc2)c2ccccc2C(=O)NCc2cccnc2)cc1" : -7.63

// recorded activation for "CC(=O)Nc1cc(-c2ccccc2F)cn2c(-c3cccc(C(F)(F)F)c3)cnc12" : -3.25

// recorded activation for "COc1ccc(Nc2nc(N)nc(CSC(=S)N3CCC(C)CC3)n2)cc1" : -4.28

====

- tested.target: Muscarinic acetylcholine receptor M1 (Homo sapiens) (UniProt P11229)
- test.name: human M1 muscarinic receptor agonists, primary screen, Fluo-8 calcium fluorescence, CHO-K1 cells, HTS (AID 588814);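 also: peak over basal fluorescence ratio within a 140 s kinetic read after compound addition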
- condition.details: CHO-K1 hM1, Fluo-8 calcium fluorescence, agonist mode; at 3 µM; 0% DMSO, 100% acetylcholine EC100
Hit rate of the full screen: of about 360,000 compounds, about 1,200 (0.33%) were called active.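 How the source made its calls: active means activation above the run's mean compound activation plus 3 SD (cut at about 16% in these data); inactive means the rest.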 Shown is part of a subset that was picked to be rich in actives.
Your answer must be one of the following: Yes (active), No (inactive)

> print(dat)
                                   molecule  answer.label
1  Cc1ccc(NS(=O)(=O)c2ccc3c(c2)NC(=O)CO3)cc1            No
2  Cc1ccc(C2(C)NC(=O)N(CC(=O)Nc3ccccc3C(=O)N3CCCCC3)C2=O)cc1 (stereo unspecified)            No
3  Cc1ccc(C2(C)NC(=O)N(CC(=O)N3CC(=O)Nc4ccccc43)C2=O)cc1 (stereo unspecified)            No
4          C=CCNC(=S)N1CCc2[nH]c3ccccc3c2C1            No
5  CC(C)N(C(=O)Cn1cc(SCC(=O)N2CCCC2)c2ccccc21)C(C)C            No

Next, consider the following molecule.
Problem: Look up the recorded call for COc1ccc(C(=O)CN2C(=O)NC(C)(c3ccc(C)cc3)C2=O)cc1OC (stereo unspecified) in this test.
Solution: Yes
